- Test system: A549 NSCLC
- Measurement Protocol: NCI tumour cell line growth inhibition, 48 h
Metric: GI50

Ask: // query GI50 value for entry CCNC(=O)Oc1ccc(/C(=C(\C)c2ccc(Cl)cc2)c2ccc(OCCN3CCCCC3)cc2)cc1
Result: 8.47 µM

Ask: Name the recorded GI50 for CCCCCCCCCCCCCCCC(=O)N[C@H]1CCc2cc(OC)c(OC)c(OC)c2-c2ccc(SC)c(=O)cc21 .
Result: 3.63 µM

Ask: Data request, read-out GI50, for CC(C)(C)c1ccc(S(=O)(=O)N[C@H]2CC[C@H]3[C@@H]4CCc5cc(O)ccc5[C@H]4CC[C@]23C)cc1
Result: 2.14 µM
